As shown below, each of these molecules has a reported Percent Effect value.
Target: Aspartate--tRNA(Asp/Asn) ligase (Mycobacterium tuberculosis (strain ATCC 25618 / H37Rv)) (UniProt P9WFW3); also: in the data most compounds retested in dose-response had high values
Experiment: Assay for Asp RNA synthetase-1 from Mycobacterium tuberculosis
Format: functional
Set-up: scale not given: direction of the effect not stated beside the values
Details: 30 µM
Numeric only. Scale: %

Would you please look over these solved cases?
| molecule | assay-metric | endpoint-value |
| --- | --- | --- |
| Cc1ccc(C(=O)N2CCN(Cc3nc(C(C)C)no3)CC2)c(=O)[nH]1 | Percent Effect | 2.27 |
| Cc1cc(CN2CCN(CC(O)C(C)(C)C)CC2)no1 (centres undefined) | Percent Effect | -13.9 |
| CC(C)(C#N)C(=O)N1CCCC(c2cc(C(F)(F)F)[nH]n2)C1 (centres undefined) | Percent Effect | -1.34 |
| Cc1nn(CC(=O)N2CCN(c3ccncc3)CC2)c(C)c1Cl | Percent Effect | 0.15 |
| Cc1ccc(-c2cc(CN3CCCC(Cn4cncn4)C3)on2)cc1 (centres undefined) | Percent Effect | 2.71 |

Bench note: what Percent Effect did O=C(c1cccn1Cc1cccs1)N1CCCC1Cn1cccn1 (centres undefined) show?
-0.702

Bench note: what Percent Effect did COc1ccccc1N1CCC(CNCc2cccc(O)c2)C1 (centres undefined) show?
2.22

Bench note: what Percent Effect did O=C(Cc1csc(-c2nnc[nH]2)n1)N1CCCC1Cn1cccn1 (centres undefined) show?
-4.54

Bench note: what Percent Effect did CC(C)c1nc(C(=O)N2CCOCC2CC(=O)c2ccco2)c[nH]1 (centres undefined) show?
-0.629

* * *

Target: Chromo domain-containing protein 1 (Saccharomyces cerevisiae (strain ATCC 204508 / S288c) (Baker's yeast)) (UniProt P32657)
Sequence (P32657 whole entry, the tested form may be a part): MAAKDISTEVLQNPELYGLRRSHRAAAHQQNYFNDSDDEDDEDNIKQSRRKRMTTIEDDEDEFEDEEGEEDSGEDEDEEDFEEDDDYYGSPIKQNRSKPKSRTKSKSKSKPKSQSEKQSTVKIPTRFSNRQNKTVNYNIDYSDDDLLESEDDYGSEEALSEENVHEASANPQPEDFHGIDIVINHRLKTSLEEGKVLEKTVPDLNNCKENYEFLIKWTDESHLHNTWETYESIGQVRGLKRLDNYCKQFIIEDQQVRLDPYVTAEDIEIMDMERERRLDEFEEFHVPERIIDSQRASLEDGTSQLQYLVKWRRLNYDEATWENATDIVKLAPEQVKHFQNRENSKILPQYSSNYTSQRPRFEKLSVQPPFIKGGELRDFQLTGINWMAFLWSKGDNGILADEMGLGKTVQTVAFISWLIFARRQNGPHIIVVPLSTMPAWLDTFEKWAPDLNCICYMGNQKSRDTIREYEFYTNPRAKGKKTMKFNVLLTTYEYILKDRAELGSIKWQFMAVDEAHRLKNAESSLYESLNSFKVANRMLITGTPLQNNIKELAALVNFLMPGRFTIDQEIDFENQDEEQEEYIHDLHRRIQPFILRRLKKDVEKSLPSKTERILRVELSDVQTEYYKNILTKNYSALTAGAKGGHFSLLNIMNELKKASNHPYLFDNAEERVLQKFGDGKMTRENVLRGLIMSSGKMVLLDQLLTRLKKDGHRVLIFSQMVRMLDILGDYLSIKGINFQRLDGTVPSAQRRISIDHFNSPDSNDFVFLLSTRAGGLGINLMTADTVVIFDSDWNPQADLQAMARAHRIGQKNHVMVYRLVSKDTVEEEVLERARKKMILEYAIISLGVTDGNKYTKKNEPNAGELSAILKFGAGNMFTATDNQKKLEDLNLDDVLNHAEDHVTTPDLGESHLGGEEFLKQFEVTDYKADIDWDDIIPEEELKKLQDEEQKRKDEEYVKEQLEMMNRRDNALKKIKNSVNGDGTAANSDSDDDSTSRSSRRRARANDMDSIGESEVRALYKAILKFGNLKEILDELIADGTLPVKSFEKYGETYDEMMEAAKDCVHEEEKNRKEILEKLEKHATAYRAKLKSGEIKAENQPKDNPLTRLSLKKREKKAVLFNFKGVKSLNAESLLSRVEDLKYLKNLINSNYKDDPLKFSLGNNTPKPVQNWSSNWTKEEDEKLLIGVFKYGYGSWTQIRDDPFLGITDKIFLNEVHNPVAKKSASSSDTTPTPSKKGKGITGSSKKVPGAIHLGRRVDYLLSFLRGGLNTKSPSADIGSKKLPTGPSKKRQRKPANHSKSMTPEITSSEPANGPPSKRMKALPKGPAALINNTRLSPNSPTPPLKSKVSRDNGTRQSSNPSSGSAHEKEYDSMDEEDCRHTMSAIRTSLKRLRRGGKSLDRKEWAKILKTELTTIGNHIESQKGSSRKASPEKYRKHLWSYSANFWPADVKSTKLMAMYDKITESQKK
Assay: ScCHD-1 Enzyme Inhibition Assay; also: in the data most compounds retested in dose-response had high values
Assay type: functional
Parameters: scale not given: direction of the effect not stated beside the values
Details: 30 µM
As shown below, each of these compounds has a reported Percent Effect value.
Numeric only. Scale: %

Would you please look over these solved cases?
| compound | Percent Effect (%) |
| --- | --- |
| Cn1cc(N2CCC3(CCN(Cc4cccnc4)C3)C2=O)cn1 (stereo unspecified) | -1.3 |
| NC(=O)CN1CCCN(C(=O)Cc2ccc(F)c(Br)c2)CC1 | -9.76 |

Bench note: what Percent Effect did CC(C)CN1C[C@H]2C[C@H](C(=O)Nc3cccnc3)[C@@H](C1)O2 show?
2.38

Bench note: what Percent Effect did Cc1ccccc1CC(C)NCc1c(C)nn(C)c1N1CCOCC1 (stereo unspecified) show?
102

Bench note: what Percent Effect did Cn1cc(CN2C[C@@H]3[C@@H](C2)OCC(=O)N3Cc2ccncc2)cn1 show?
0.0412

* * *

Target: Aspartate--tRNA(Asp/Asn) ligase (Mycobacterium tuberculosis (strain ATCC 25618 / H37Rv)) (UniProt P9WFW3); also: in the data most compounds retested in dose-response had high values
Sequence (whole entry): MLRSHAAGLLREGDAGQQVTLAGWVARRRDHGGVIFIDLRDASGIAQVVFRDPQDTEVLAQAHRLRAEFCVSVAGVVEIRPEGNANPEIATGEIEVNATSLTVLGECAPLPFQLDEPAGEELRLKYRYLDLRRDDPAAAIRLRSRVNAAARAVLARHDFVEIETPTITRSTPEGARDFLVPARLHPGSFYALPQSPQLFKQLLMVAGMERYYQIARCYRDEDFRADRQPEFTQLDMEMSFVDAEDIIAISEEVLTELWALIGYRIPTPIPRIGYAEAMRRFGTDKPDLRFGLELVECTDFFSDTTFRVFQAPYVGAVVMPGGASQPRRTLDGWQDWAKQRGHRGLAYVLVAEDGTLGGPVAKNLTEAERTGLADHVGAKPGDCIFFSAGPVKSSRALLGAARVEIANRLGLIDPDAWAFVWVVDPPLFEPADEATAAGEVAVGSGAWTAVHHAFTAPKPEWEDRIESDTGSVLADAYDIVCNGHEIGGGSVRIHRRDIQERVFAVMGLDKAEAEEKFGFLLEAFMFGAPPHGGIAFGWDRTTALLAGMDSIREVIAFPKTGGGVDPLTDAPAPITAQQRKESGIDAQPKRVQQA
Assay: Assay for Asp RNA synthetase-1 from Mycobacterium tuberculosis
Type: functional
Set-up: scale not given: direction of the effect not stated beside the values
Conditions: 30 µM
As shown below, each of these molecules has a reported Percent Effect value.
Numeric only. Scale: %

Bench note: what Percent Effect did COc1cc(CC(O)CO)c(OC)c2c1OCO2 (configuration not stated) show?
-3.19

Bench note: what Percent Effect did CNC(=O)CS(=O)(=O)C1CCN(S(=O)(=O)c2c(F)cccc2F)CC1 show?
-1.03

* * *

Molecular target: Aspartate--tRNA(Asp/Asn) ligase (Mycobacterium tuberculosis (strain ATCC 25618 / H37Rv)); also: in the data most compounds retested in dose-response had high values
Assay: Assay for Asp RNA synthetase-1 from Mycobacterium tuberculosis
Assay type: functional
Set-up: scale not given: direction of the effect not stated beside the values
Conditions: 30 µM
assay-metric: Percent Effect (%)
Numeric only. Scale: %

Would you please look over these solved cases?
| compound | Percent Effect, % |
| --- | --- |
| CCn1ncc2c1CCCC2NCc1ccc(OC)c(C)c1 (centres undefined) | -4.46 |
| CCOc1ncccc1CNC(=O)N1CCCC1c1cc(C)no1 (centres undefined) | -2.06 |
| Cc1ccc(C(NC(=O)[C@H]2CC[C@@H](O)CC2)c2cccnc2)cc1C (some centres undefined) | -3.21 |
| Cc1ccc(NC(=O)N2CCN(Cc3noc(C4CC4)n3)CC2)cc1 | -2.14 |
| O=C(c1ccc[nH]1)N1CCN(CC2CCOc3ccccc3C2)CC1 (centres undefined) | 4.96 |

Bench note: what Percent Effect did CN(CC(=O)Nc1ccc(Br)cn1)C(=O)Cc1ccc(O)cc1 show?
-5.92

Bench note: what Percent Effect did Cn1cccc1C(=O)N1CCc2ncnc(C3CC3)c2CC1 show?
0.574

Bench note: what Percent Effect did CC(C)c1noc(C(C)N2CCN(CCO)CC2)n1 (centres undefined) show?
13

Bench note: what Percent Effect did Cc1cccc(CCC(=O)N2CCCC(c3cc(C(N)=O)[nH]n3)C2)c1 (centres undefined) show?
-0.161

* * *

As shown below, each of these molecules has a reported Percent Effect value.
Biological target: Shiga toxin 2 (Escherichia coli O157:H7) (UniProt P09385+P09386)
Experiment: E. coli 0.157:H7 Shiga Toxin SOP - stx2 screening assay
Type: functional
Set-up: scale not given: direction of the effect not stated beside the values
Settings: 30 µM
Numeric only. Scale: %

Would you please look over these solved cases?
| molecule | scale-unit | Percent Effect |
| --- | --- | --- |
| CCc1noc(C(C)N2CCN(Cc3ncc(C(C)(C)C)o3)CC2)n1 (stereo not drawn) | % | 23.4 |
| Cc1nn(C)c(C)c1C1CCCN1C(=O)CCNc1ncccn1 (stereo not drawn) | % | 13.4 |

Let's switch to this molecule now.
Bench note: what Percent Effect did Cc1ccn(-c2ccc(C(=O)N3CCCC(n4ccnc4)C3)cc2)n1 (stereo not drawn) show?
-14.7

* * *

Target: Aspartate--tRNA(Asp/Asn) ligase (Mycobacterium tuberculosis (strain ATCC 25618 / H37Rv)); also: in the data most compounds retested in dose-response had high values
Test: Assay for Asp RNA synthetase-1 from Mycobacterium tuberculosis
Format: functional
Design: scale not given: direction of the effect not stated beside the values
Details: 30 µM
As shown below, each of these molecules has a reported Percent Effect value.
Numeric only. Scale: %

Would you please look over these solved cases?
| molecule | scale-unit | endpoint-value |
| --- | --- | --- |
| Nc1nc2c(c(=O)[nH]1)CCN(C(=O)c1cccc3nccnc13)C2 | % | 6.9 |
| Cc1nn(C)c(C)c1C1CCCN1C(=O)CCNc1ncccn1 (stereo unspecified) | % | 6.63 |
| CNc1nc2c(s1)C(=O)CN(C(=O)NCc1ccccc1)C2 | % | 1.63 |
| CC(C)c1cc(NC(=O)c2ccc(C(=O)NC(C)(C)C)cc2)[nH]n1 | % | -0.941 |
| CCc1nccn1C1CCCN(C(=O)c2csc(COC)n2)C1 (stereo unspecified) | % | 4.12 |

Let's switch to this molecule now.
Bench note: what Percent Effect did CC(C)C(=O)N1CCC2(CCCN(CCOc3ccccc3)C2)C1 (stereo unspecified) show?
2.32

* * *

As shown below, each of these compounds has a reported Percent Effect value.
Target: Shiga toxin 2 (Escherichia coli O157:H7) (UniProt P09385+P09386)
Assay: E. coli 0.157:H7 Shiga Toxin SOP - stx2 screening assay
Assay type: functional
Set-up: scale not given: direction of the effect not stated beside the values
Settings: 30 µM
Numeric only. Scale: %

| compound | Percent Effect, % |
| --- | --- |
| Cc1nc(CN(C)C2CCN(CC(=O)NC3CCOCC3)C2)no1 (centres undefined) | 17.1 |
| Cc1ccc(C(=O)N2Cc3c(CN4CCCCC4)nn(C)c3C2)cc1C | -4.53 |
| Cc1ccc(CC(=O)N2CCCC(c3cc(C)[nH]n3)C2)cn1 (centres undefined) | -18.6 |
| CN(Cc1ccco1)C[C@H]1OC[C@@H]2CCN(Cc3cccs3)C[C@@H]21 | -17.4 |

Let's switch to this compound now.
Bench note: what Percent Effect did CN(C)CCN(Cc1ccc(Cl)cc1)C(=O)c1cc[nH]n1 show?
9.32
